- Test system: NCI-H460 lung
- procedure_details: NCI-60 one-dose screen, 48 h (100 = growth as untreated, 0 = no growth, -100 = all killed)
- settings: 10 µM unless noted
This is part of a sample that, as a whole, favours compounds with a hit. Of some 83,000 tested, about 20% had one in any assay.
Please provide measured growth for the entries that follow.
Dear colleague, please return just the value in %, with no unit written.

compound `CNCc1cccc2c1OCCOCCOCCNS(=O)(=O)c1ccc(cc1)-c1cnc(N)c(n1)C(=O)N2` , growth observed: 9.41

Per the record, COc1ccc(CCN2C(=O)/C(=C/c3ccc(C4Oc5ccccc5C5CC(c6ccccc6)=NN54)cc3)SC2=S)cc1 (stereo not drawn) has growth of 110

Record `COc1ccc2c(c1)CCc1[nH]nc(-c3cc(OC)c(OC)c(OC)c3)c1-2` . Reported growth: 3.92

Entry O=C(NC(Cc1nnc2n(Cc3ccccc3)c(=O)c3c4c(sc3n12)CCCC4)c1ccccc1)c1ccccc1 (stereo not drawn) , growth reported as 94.4

response.value for `COc1cc2c(cc1OCCCCN1CCN(C(=S)SCCC(C#N)(c3ccccc3)c3ccccc3)CC1)N=C[C@@H]1CCCN1C2=O` (field: growth) = -73.9

// recorded growth for `NS(=O)(=O)c1ccc(NC(=O)/C(=C\c2ccc(Cl)cc2Cl)NC(=O)c2ccccc2)cc1` : 105

Reported growth of O=C(NC1CC(F)C1)c1cc2cccnc2n1-c1ccc(Cl)c(Cl)c1 (stereo not drawn) : 101

Data point: Cc1nc2c(c(=O)[nH]1)C(c1ccccc1)c1ccc3ccccc3c1O2 (stereo not drawn) ; growth = 20.5

The compound listed as `CC(C)(C)n1cc(-c2ccnc(NCCCNS(=O)(=O)c3cccc4ccccc34)c2)c(-c2cccc(F)c2)n1` has a reported growth of 73.3

# compound `CC(=O)c1ccc(Nc2nccc(-c3ccc4ccccc4c3)n2)cc1` ; its growth = 98.4

Memo: `Cc1ccc(-c2csc(NC(=O)c3ccccc3CN3C(=O)c4ccccc4C3=O)n2)cc1` , reported growth: 109

Item: `CN1C(=O)/C(=C/c2ccc(C(=O)Nc3ncc(Cc4cccc(Cl)c4)s3)cc2)SC1=S` | growth: 20.3

The recorded growth for `COc1ccc(C[n+]2c3ccccc3n3c4ccc(N)cc4ccc32)c(OC)c1OC` is 73.6
